Provenance of the data: paper PMC2553845

Target: T1, SCRIB PDZ domain 2 (human, UniProt Q14160 862-950)
T1 construct: also called SCRIB-2
T1 sequence (looked up): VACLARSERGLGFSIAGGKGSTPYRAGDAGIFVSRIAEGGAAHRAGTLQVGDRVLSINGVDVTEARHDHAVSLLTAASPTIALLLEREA
Experiment: ELISA; competition ELISA as described in ref. 20: synthetic peptide in solution blocks PDZ domain binding to immobilized peptide; IC50 = peptide concentration that blocked 50% of binding; no detectable interaction = IC50 > 500 μM
Conditions: both partners purified
pIC50: −log10 of the molar value. Where no end group is shown, it is not given here.
value_kind: pIC50

Challenge: Which pIC50 value is on record for RQIKIWFQNRRMKWKKRSWFEAWA (not fully specified (C-terminus)) [designed nonbinding peptide Π–RSWFEAWA (peptide 15)] ?
Response given: < 3.30
